Entry source: the supplement of paper PMC10567573

protein stability index overview
B1: TRIM35 (parent)
chain: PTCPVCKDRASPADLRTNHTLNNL

Variants of: B1
test_method_notes: protein stability index of a GFP-peptide fusion (GPS, HEK-293T) (PSI 1-6); higher = more stable;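 also: lentivirally expressed fusions sorted by FACS into six bins by GFP to DsRed ratio, PSI derived from sequencing read proportions per bin multiplied by bin number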
test_settings: c terminus: a fixed tail appended
property_name: protein stability index

mutation_notation: T17N
result: 3.09
//
mutation_notation: L15N
result: 3.96
//
mutation_notation: N22A
result: 3.06
//
mutation_notation: N23F
result: 2.27
//
mutation_notation: A10S
result: 2.86
//
mutation_notation: A10H
result: 3.23
//
mutation_notation: K7M
result: 2.87
//
mutation_notation: L15K
result: 3.21
//
mutation_notation: A10C
result: 2.03
//
mutation_notation: A10Y
result: 2.56
//
mutation_notation: R9C
result: 2.97
//
mutation_notation: N22W
result: 2.02
//
mutation_notation: V5I
result: 2.69
//
mutation_notation: R16W
result: 2.01
//
mutation_notation: V5P
result: 4.71
//
mutation_notation: T20V
result: 3.19
//
mutation_notation: N23H
result: 3.47
//
mutation_notation: D8E
result: 2.75
//
mutation_notation: D14T
result: 2.77
//
mutation_notation: P4F
result: 2.73
//
mutation_notation: N22V
result: 2.21
//
mutation_notation: L21V
result: 2.96
//
mutation_notation: N22F
result: 2.13
//
mutation_notation: S11W
result: 2.51
//
mutation_notation: L15I
result: 3
//
mutation_notation: P4Y
result: 3.01
//
mutation_notation: R16P
result: 3.11
//
mutation_notation: P1F
result: 2.11
//
mutation_notation: K7R
result: 2.72
//
mutation_notation: L24G
result: 3.83
//
mutation_notation: S11V
result: 3.1
//
mutation_notation: C3G
result: 4.3
//
mutation_notation: H19G
result: 3.33
//
mutation_notation: P4I
result: 2.72
//
mutation_notation: P4V
result: 3.19
//
mutation_notation: D14S
result: 2.98
//
mutation_notation: N22P
result: 2.44
//
mutation_notation: T17F
result: 2.52
//
mutation_notation: A10L
result: 1.96
//
mutation_notation: R9I
result: 2.96
//
mutation_notation: T17I
result: 3.07
//
mutation_notation: L15V
result: 3.67
//
mutation_notation: D14W
result: 2.6
//
mutation_notation: P1Y
result: 2.47
//
mutation_notation: N23A
result: 2.73
//
mutation_notation: T20Q
result: 3.06
//
mutation_notation: R9Y
result: 3.08
//
mutation_notation: H19S
result: 3.09
//
mutation_notation: S11N
result: 2.86
//
mutation_notation: R16L
result: 3.04
//
mutation_notation: A10Q
result: 3.01
//
mutation_notation: T20F
result: 2.59
//
mutation_notation: S11P
result: 3.19
//
mutation_notation: L15S
result: 3.57
//
mutation_notation: A10K
result: 3.05
//
mutation_notation: L24C
result: 3.94
//
mutation_notation: N18V
result: 2.62
//
mutation_notation: P12Q
result: 3.11
//
mutation_notation: P1L
result: 2.62
//
mutation_notation: N22C
result: 4.13
//
mutation_notation: C6Q
result: 4.28
//
mutation_notation: L21H
result: 3.66
//
mutation_notation: C3K
result: 4
//
mutation_notation: H19F
result: 2.4
//
mutation_notation: N23K
result: 3.12
//
mutation_notation: R9F
result: 3.11
//
mutation_notation: R9E
result: 3.62
//
mutation_notation: T20L
result: 2.77
//
mutation_notation: P12K
result: 2.83
//
mutation_notation: R16S
result: 3.54
//
mutation_notation: V5Q
result: 3.38
//
mutation_notation: T20M
result: 2.67
//
mutation_notation: H19C
result: 2.95
//
mutation_notation: A10E
result: 3.33
//
mutation_notation: K7T
result: 2.72
//
mutation_notation: V5R
result: 2.87
//
mutation_notation: A13E
result: 3.86
//
mutation_notation: P4L
result: 3.32
//
mutation_notation: A10N
result: 2.78
//
mutation_notation: P1C
result: 3.87
//
mutation_notation: P1H
result: 2.95
//
mutation_notation: R9Q
result: 3.55
//
mutation_notation: A10V
result: 2.45
//
mutation_notation: A13P
result: 3.29
//
mutation_notation: A13L
result: 2.31
//
mutation_notation: C3A
result: 4.44
//
mutation_notation: C3M
result: 4.08
//
mutation_notation: P12Y
result: 2.69
//
mutation_notation: V5K
result: 3.59
//
mutation_notation: C6L
result: 3.86
//
mutation_notation: C3I
result: 4.38
